- MEASUREMENT_TARGET: MAP kinase-activated protein kinase 2 (Homo sapiens, UniProt P49137)
- Sequence (P49137 whole entry): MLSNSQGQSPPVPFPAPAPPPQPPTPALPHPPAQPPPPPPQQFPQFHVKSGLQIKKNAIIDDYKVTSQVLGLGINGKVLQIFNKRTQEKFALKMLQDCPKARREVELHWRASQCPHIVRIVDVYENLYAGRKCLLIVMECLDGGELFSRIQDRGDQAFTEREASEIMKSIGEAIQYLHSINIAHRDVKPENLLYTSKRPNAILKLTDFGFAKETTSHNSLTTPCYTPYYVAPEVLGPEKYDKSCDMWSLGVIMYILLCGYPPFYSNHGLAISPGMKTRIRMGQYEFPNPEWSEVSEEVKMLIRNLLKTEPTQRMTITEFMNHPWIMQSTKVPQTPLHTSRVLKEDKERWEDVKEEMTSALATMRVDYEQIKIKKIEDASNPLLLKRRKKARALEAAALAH
- ASSAY_PROCEDURE: Inhibition of MK2
METRIC_NAME: IC50

[[record]]
record_smiles = "COc1ccc2sc3c(c2c1)CCCNC3=O"
measurement_target = "MAP kinase-activated protein kinase 2 (Homo sapiens, UniProt P49137)"
metric_name = "IC50"
endpoint_result = "500 nM"

[[record]]
record_smiles = "COC(=O)COc1ccc2sc3c(c2c1)NC[C@@H](C)NC3=O"
measurement_target = "MAP kinase-activated protein kinase 2 (Homo sapiens, UniProt P49137)"
metric_name = "IC50"
endpoint_result = "3440 nM"

[[record]]
record_smiles = "COc1ccc2sc3c(c2c1)NC[C@@H](CN)NC3=O"
measurement_target = "MAP kinase-activated protein kinase 2 (Homo sapiens, UniProt P49137)"
metric_name = "IC50"
endpoint_result = "5 nM"

[[record]]
record_smiles = "COc1ccc2sc3c(c2c1)NC[C@@H](CNCc1ccccc1)NC3=O"
measurement_target = "MAP kinase-activated protein kinase 2 (Homo sapiens, UniProt P49137)"
metric_name = "IC50"
endpoint_result = "570 nM"

[[record]]
record_smiles = "CCCNC[C@@H]1CNc2c(sc3ccc(OC)cc23)C(=O)N1"
measurement_target = "MAP kinase-activated protein kinase 2 (Homo sapiens, UniProt P49137)"
metric_name = "IC50"
endpoint_result = "450 nM"

[[record]]
record_smiles = "COc1ccc2sc3c(c2c1)NC[C@@H](CN(C)Cc1ccccc1)NC3=O"
measurement_target = "MAP kinase-activated protein kinase 2 (Homo sapiens, UniProt P49137)"
metric_name = "IC50"
endpoint_result = "1910 nM"

[[record]]
record_smiles = "C[C@@H]1CNc2c(sc3ccc(O)cc23)C(=O)N1"
measurement_target = "MAP kinase-activated protein kinase 2 (Homo sapiens, UniProt P49137)"
metric_name = "IC50"
endpoint_result = "190 nM"

[[record]]
record_smiles = "COc1cccc(COc2ccc3sc4c(c3c2)NC[C@@H](C)NC4=O)c1"
measurement_target = "MAP kinase-activated protein kinase 2 (Homo sapiens, UniProt P49137)"
metric_name = "IC50"
endpoint_result = "110 nM"

[[record]]
record_smiles = "COc1ccc2sc3c(c2c1)SCCNC3=O"
measurement_target = "MAP kinase-activated protein kinase 2 (Homo sapiens, UniProt P49137)"
metric_name = "IC50"
endpoint_result = "1090 nM"

[[record]]
record_smiles = "COc1ccc2sc3c(c2c1)NC[C@@H](CO)NC3=O"
measurement_target = "MAP kinase-activated protein kinase 2 (Homo sapiens, UniProt P49137)"
metric_name = "IC50"
endpoint_result = "14 nM"

[[record]]
record_smiles = "COCCOc1ccc2sc3c(c2c1)NC[C@@H](C)NC3=O"
measurement_target = "MAP kinase-activated protein kinase 2 (Homo sapiens, UniProt P49137)"
metric_name = "IC50"
endpoint_result = "270 nM"

[[record]]
record_smiles = "CC(C)COc1ccc2sc3c(c2c1)NC[C@@H](C)NC3=O"
measurement_target = "MAP kinase-activated protein kinase 2 (Homo sapiens, UniProt P49137)"
metric_name = "IC50"
endpoint_result = "30 nM"


---

- MEASUREMENT_TARGET: MAP kinase-activated protein kinase 2 (Homo sapiens, UniProt P49137)
- ASSAY_PROCEDURE: Inhibition of MK2
METRIC_NAME: IC50 (nM)

[[record]]
record_smiles = "COc1ccc2sc3c(c2c1)NCCNC3=O"
measurement_target = "MAP kinase-activated protein kinase 2 (Homo sapiens, UniProt P49137)"
metric_name = "IC50"
operator_symbol = "="
endpoint_result = 180

[[record]]
record_smiles = "CCC[C@@H]1CNc2c(sc3ccc(OC)cc23)C(=O)N1"
measurement_target = "MAP kinase-activated protein kinase 2 (Homo sapiens, UniProt P49137)"
metric_name = "IC50"
operator_symbol = "="
endpoint_result = 1520

[[record]]
record_smiles = "CCNC[C@@H]1CNc2c(sc3ccc(OC)cc23)C(=O)N1"
measurement_target = "MAP kinase-activated protein kinase 2 (Homo sapiens, UniProt P49137)"
metric_name = "IC50"
operator_symbol = "="
endpoint_result = 570

[[record]]
record_smiles = "C[C@@H]1CNc2c(sc3ccc(OCC4CC4)cc23)C(=O)N1"
measurement_target = "MAP kinase-activated protein kinase 2 (Homo sapiens, UniProt P49137)"
metric_name = "IC50"
operator_symbol = "="
endpoint_result = 1320

[[record]]
record_smiles = "COc1ccc2sc3c(c2c1)NC[C@@H](CN1CCCC1)NC3=O"
measurement_target = "MAP kinase-activated protein kinase 2 (Homo sapiens, UniProt P49137)"
metric_name = "IC50"
operator_symbol = ">"
endpoint_result = 20000

[[record]]
record_smiles = "COc1ccc2sc3c(c2c1)NC[C@@H](CN1CCOCC1)NC3=O"
measurement_target = "MAP kinase-activated protein kinase 2 (Homo sapiens, UniProt P49137)"
metric_name = "IC50"
operator_symbol = ">"
endpoint_result = 20000

